GI50 tested on U251 CNS: recorded values

- Ic1ccc(-n2nnnc2-c2cnoc2-c2ccccc2)cc1: 44.8 µM
- COc1ccccc1N1CCN(CCCn2c(=O)c3c(OC)nc(C)cc3c(=O)n2-c2ccccc2)CC1: > 100 µM
- CCOC(=O)C(=Cc1cccc(Cl)c1)C(=O)OCC: 4.47 µM
- CCOc1ccc2nc(S/C(=C/C=C(C#N)C#N)c3ccc(C)cc3)sc2c1: 29.4 µM
- N=c1ccn2c(n1)OC1C(O)C(CO)OC12 (stereo unspecified): 2.11 µM
- CS(=O)(=O)CCCn1c(=O)c(Oc2ccc(F)cc2F)cc2cnc(NC3CCOCC3)nc21: > 25 µM

Q: I have this compound here, Nc1c(C(=O)Nc2cccc(Br)c2)sc2nc3c(cc12)C(=O)CCC3 , and I need its recorded GI50.
Result: 0.517 µM

Q: Repeat with Cc1csc(Nc2nc(-c3cccc(Br)c3)nc(C(Cl)(Cl)Cl)n2)n1
Result: 1.83 µM

Q: Repeat with CC12CCC3C(CCC4=CC(O)CCC43C=O)C1(O)CCC2c1ccc(=O)oc1 (stereo unspecified)
Result: 0.05 µM

Q: Repeat with C[C@H]1Oc2cc(cnc2N)-c2c(nn(C)c2C#N)CN(C)C(=O)c2ccc(F)cc21
Result: > 100 µM

Q: Repeat with O=c1cc2oc3cc(O)c(O)cc3c(-c3ccccc3O)c-2cc1O
Result: 4.6 µM

---

- System: K-562 leukemia
- method-description: NCI tumour cell line growth inhibition, 48 h
Documented TGI across a set of molecules

• COc1ccc(-c2oc(=O)ccc2-c2cc(OC)c(OC)c(OC)c2)cc1F = > 100 µM

Next up:
Q: I have this molecule here, O=[N+]([O-])c1ccc(-n2nnc(C3=NCCN3)c2-c2ccc(Cl)cc2)cc1 , and I need its recorded TGI.
Result: > 100 µM

---

- Test system: HS 578T breast
- method-description: NCI tumour cell line growth inhibition, 48 h
Documented TGI across a set of compounds

• Cc1csc(Nc2nc(-c3cccc(Br)c3)nc(C(Cl)(Cl)Cl)n2)n1 = > 100 µM
• C[C@@H]1CCC2[C@@H](C)[C@@H](OCCO[C@H]3OC4O[C@@]5(C)CCC6[C@H](C)CCC([C@H]3C)[C@@]46OO5)OC3O[C@@]4(C)CCC1[C@]32OO4 (stereo not given in full) = > 100 µM
• N#C/C=C(\c1ccc([N+](=O)[O-])cc1)n1nnc2cc(Cl)c(Cl)cc21 = 8.94 µM

Q: I have this compound here, CCc1nc2ccc(N=NN(C)C)cc2[nH]1 , and I need its recorded TGI.
Result: > 100 µM

Q: Repeat with COC(=O)C1(OC(=O)Sc2ccccc2)CCN(C)CC1
Result: 70.9 µM

---

Documented log10 of TGI across a set of compounds
- Tested on: MALME-3M melanoma
- method-description: NCI tumour cell line growth inhibition, 48 h
Parameter value (number): base-10 log of TGI in µM.

- CC(C)C1=C(Cc2ccccc2)C(=O)O/C1=C\c1cc(Cl)c(O)c(Cl)c1: 1.56
- COc1ccc(C(=O)/C=C/c2ccncc2)cc1OC: 1.51
- CC(C)=CCc1cc(O)cc2c1OC(C=C(C)C)C1=C2C(=O)C2=C(NCCS2(=O)=O)C1=O (stereo not given): -0.08
- O=C(CC(=O)c1ccccc1)CC(O)(c1ccccc1)c1ccccc1: 1.40

Q: I have this compound here, Oc1ccc(-c2nc(-c3ccc(F)cc3)c(-c3ccc4ccccc4n3)[nH]2)cc1 , and I need its recorded log10 of TGI.
Result: 1.45

---

- System: SK-MEL-2 melanoma
- method-description: NCI tumour cell line growth inhibition, 48 h
reported-property: TGI (µM)
Express your answer in µM, writing the number without its unit.

# example entries with known answers
• N#CC1(C#N)C2CCCCC23OC(=N)C1(C#N)C(c1ccccc1)O3 (stereo not given) = 43
• CC1C[C@]2(C)C(=O)Nc3ccccc3[C@@H]2Nc2ccccc21 (stereo not given in full) = 45
• COc1ccc(OC)c(C2Cc3cnc4nc(N)nc(N)c4c3C2)c1 (stereo not given) = 42.2

Next up:
Q: API: value(readout=TGI, system=SK-MEL-2 melanoma) for record CCCCCCNC(=O)c1nc(-c2ccccc2)oc1Cc1ccc(OP(=O)(O)O)cc1
Result: 37.1

---

- Tested on: COLO 205 colon
- method-description: NCI tumour cell line growth inhibition, 48 h
reported-property: TGI (µM)
Express your answer in µM, writing the number without its unit.

# example entries with known answers
• COC(=O)C1(OC(=O)Sc2ccccc2)CCN(C)CC1 = 29.8
• COC12C=C/C(=C(/C(=O)OCc3ccncc3)C(=O)CCCCCCCCC3(OC)C=C/C(=C(/C(=O)OCc4ccncc4)C(=O)CCCCCCCC1)O3)O2 = 2.18
• Cn1cnc([N+](=O)[O-])c1S(=O)(=O)Oc1ccccc1 = 3.29
• N#CC1(C#N)C2CCCCC23OC(=N)C1(C#N)C(c1ccccc1)O3 (stereo not given) = 34.1

Next up:
Q: API: value(readout=TGI, system=COLO 205 colon) for record CCN(CC)c1nc(-c2ccc(Cl)cc2Cl)nc2ccccc12
Result: 48.8

---

- Test system: COLO 205 colon
- method-description: NCI tumour cell line growth inhibition, 48 h
reported-property: GI50

# example entries with known answers
• Ic1ccc(-n2nnnc2-c2cnoc2-c2ccccc2)cc1 = > 59 µM
• C=CC(=O)N1CCC(C2CCNc3c(C(N)=O)c(-c4ccc(Oc5ccccc5)cc4)nn32)CC1 (stereo not drawn) = 19.1 µM

Next up:
Q: I have this compound here, Cc1ccc(Cl)cc1Nc1nc(C(F)(F)F)ccc1C(=O)N1CCN(c2cccc(Cl)c2)CC1 , and I need its recorded GI50.
Result: > 100 µM

---

- Tested on: OVCAR-5 ovarian
- method-description: NCI tumour cell line growth inhibition, 48 h
reported-property: TGI

- COc1ccccc1N1CCN(CCCn2c(=O)c3c(OC)nc(C)cc3c(=O)n2-c2ccccc2)CC1: > 100 µM
- CCO/C=N/NC(=O)CSc1nc2ccc(I)cc2c(=O)n1Cc1ccccc1: > 100 µM
- O=C(NC(CO)Cc1ccc(Oc2cc(CC(CO)NC(=O)OCc3ccccc3)ccc2OC(=O)OCc2ccccc2)cc1)OCc1ccccc1 (stereo not given): > 100 µM

Q: I have this molecule here, CS(=O)(=O)CCCn1c(=O)c(Oc2ccc(F)cc2F)cc2cnc(NC3CCOCC3)nc21 , and I need its recorded TGI.
Result: > 25 µM

Q: Repeat with Ic1ccc(-n2nnnc2-c2cnoc2-c2ccccc2)cc1
Result: > 100 µM

---

Documented TGI across a set of compounds
- Tested on: HOP-92 NSCLC
- method-description: NCI tumour cell line growth inhibition, 48 h
Express your answer in µM, writing the number without its unit.

- O=S(Cc1ccccn1)c1nc2ccccc2nc1-c1ccccc1 (centres undefined): 83.3
- CC12CCC3C(CCC4=CC(O)CCC43C=O)C1(O)CCC2c1ccc(=O)oc1 (centres undefined): 0.0404
- CC1C[C@]2(C)C(=O)Nc3ccccc3[C@@H]2Nc2ccccc21 (some centres undefined): 27.6
- O=C(NS(=O)(=O)OCC(Cl)(Cl)Cl)SCCC(F)(F)C(F)(F)C(F)(F)C(F)(F)C(F)(F)C(F)(F)F: 23.4

Q: I have this compound here, Cn1cc(C2=C(c3cn(C)c4cc(C(N)=O)ccc34)C(=O)NC2=O)c2ccccc21 , and I need its recorded TGI.
Result: 24.5

---

- Tested on: SF-295 CNS
- method-description: NCI tumour cell line growth inhibition, 48 h
reported-property: TGI (µM)
Express your answer in µM, writing the number without its unit.

# example entries with known answers
• CCN1CCN=c2c3cc(OC)ccc3n3cnc4ccc1c2c43 = 1.29
• Cc1ccsc1/C=N/Nc1ccc2ccccc2n1 = 31
• Cc1ccc(/C=C/c2c(C(=O)/C=C/c3ccc(C(F)(F)F)cc3)c(C)nc3ccccc23)cc1 = 3.14

Q: I have this compound here, C=CCCCCCCCCCCC1(O)C=CC2=[N+](CCCCCN=C(N)N)CCCN21 (centres undefined) , and I need its recorded TGI.
Result: 24.9

Q: Repeat with COc1cc(CNCCCN2C(=O)c3ccc4c5c(ccc(c35)C2=O)C(=O)N(CCCNCc2cc(OC)c(OC)c(OC)c2)C4=O)cc(OC)c1OC
Result: 1.55

Q: Repeat with Cc1nc2cnc(N)c(C#Cc3cncc(C(=O)Nc4ccc(CN5CCN(C)CC5)c(C(F)(F)F)c4)c3)c2nc1C
Result: 19.6

Q: Repeat with CCOc1ccc(N2C(=O)/C(=C/c3ccc(N(CCC#N)CCC#N)cc3)N=C2c2cc([N+](=O)[O-])ccc2Cl)cc1
Result: 83.7

Q: Repeat with COc1ccc(OC)c(C2Cc3cnc4nc(N)nc(N)c4c3C2)c1 (centres undefined)
Result: 93.7

Q: Repeat with NS(=O)(=O)c1ccc(N(/C=C/C(=O)C(F)(F)F)CC(=O)c2ccc(Cl)cc2)cc1
Result: 74.4

Q: Repeat with CC(CCC#N)(CCC#N)C(=O)CC(O)(C(F)(F)F)C(F)(F)F
Result: 41

Q: Repeat with O=C(NS(=O)(=O)OCC(Cl)(Cl)Cl)SCCC(F)(F)C(F)(F)C(F)(F)C(F)(F)C(F)(F)C(F)(F)F
Result: 38.9

Q: Repeat with CCOc1ccc2nc(S/C(=C/C=C(C#N)C#N)c3ccc(C)cc3)sc2c1
Result: 60.8

Q: Repeat with C[C@@]12CCC3C1C=C1C(=O)c4cc(O)ccc4C(=O)[C@]1(O2)[C@@]3(C)C=O
Result: 22

Q: Repeat with O=[N+]([O-])c1cc2c(c3nonc13)OCCCCO2
Result: 31.6

Q: Repeat with CC(=O)OC1O[C@@H](C(C)(C)O)CC[C@@H]1[C@H]1CC[C@@]2(C)C3=C(CC[C@]12C)[C@@]1(C)C[C@@H](OC(=O)CC(C)(O)CC(=O)O)[C@H](OC(C)=O)C(C)(C)C1CC3 (some centres undefined)
Result: 32.4

Q: Repeat with COC1C(O)=C2C(=O)O/C(C)=C/C=C/C=C/C=C\CC(c3ccccc3)NC(=O)\C=C/C=C\C=C\C=C\[C@@]2(C)[C@@H]1O (some centres undefined)
Result: 0.0238
